All values here come from patent US7393846B2.

Could you please report measured IC50 for the items listed next?
target: PDE4 enzyme; assay: Inhibition of Phosphodiesterase Enzymes (PDE4), [3H]cAMP hydrolysis assay; type: biochemical; settings: PDE4 inhibition, 1 μM cAMP, 34° C., 20 minutes; sodium salt
Where a name gives a salt, the structure may show the parent alone.
Give just the numeric value; nM need not be written.

**Query** Quick check: IC50 of CS(=O)(=O)Nc1ccc2oc3c(OC(F)F)ccc(C(=O)Nc4c(Cl)cncc4Cl)c3c2c1 [Example 31, sodium salt] ?
**Result** 1.43

**Query** And for COc1ccc(C(=O)Nc2c(Cl)cncc2Cl)c2c1oc1ccc(NC(=O)C(=O)O)cc12 [Example 10, sodium salt] ?
**Result** 1.85

----------
MEASUREMENT TYPE: melting point (°C)
Give just the numeric value; °C need not be written.

**Query** Quick check: melting point of CCNC(=S)Nc1ccc2oc3c(OC)ccc(C(=O)Nc4c(Cl)cncc4Cl)c3c2c1 ?
**Result** 260

**Query** And for CC(=O)Nc1ccc2oc3c(OC(F)F)ccc(C(=O)Nc4c(Cl)cncc4Cl)c3c2c1 ?
**Result** 234

**Query** And for COc1ccc(NC(=O)c2ccc(OC)c3oc4ccc(NC(C)=O)cc4c23)cc1 ?
**Result** 285

**Query** And for COc1ccc(C(=O)Nc2c(Cl)cncc2Cl)c2c1oc1ccc(NC(=O)OCC3CC3)cc12 ?
**Result** 272

**Query** And for COc1ccc(C(=O)Nc2ccccc2)c2c1oc1ccc(NC(C)=O)cc12 ?
**Result** 252

**Query** And for CCOC(=O)Nc1ccc2oc3c(OC)ccc(C(=O)Nc4c(Cl)cncc4Cl)c3c2c1 ?
**Result** 274

----------
MEASUREMENT TYPE: melting point

**Query** Quick check: melting point of CCN(CC)C(=O)Nc1ccc2oc3c(OC)ccc(C(=O)Nc4c(Cl)cncc4Cl)c3c2c1 ?
**Result** > 250 °C

**Query** And for COc1ccc(C(=O)Nc2c(Cl)cncc2Cl)c2c1oc1ccc(NC(=O)C(F)(F)F)cc12 ?
**Result** > 300 °C

**Query** And for COc1ccc(C(=O)Nc2c(Cl)cncc2Cl)c2c1oc1ccc(NC(C)=O)cc12 ?
**Result** 252 °C

**Query** And for COc1ccc(C(=O)Nc2cccnc2)c2c1oc1ccc(NC(C)=O)cc12 ?
**Result** > 250 °C

**Query** And for CCOC(=O)CNC(=O)Nc1ccc2oc3c(OC)ccc(C(=O)Nc4c(Cl)cncc4Cl)c3c2c1 ?
**Result** > 250 °C

----------
target: PDE4 enzyme; assay: Inhibition of Phosphodiesterase Enzymes (PDE4), [3H]cAMP hydrolysis assay; assay type: biochemical; conditions: PDE4 inhibition, 1 μM cAMP, 34° C., 20 minutes
Could you please report measured pIC50 for the items listed next?
Convention used: pIC50 is expressed as -log10 of the molar concentration.

**Query** Quick check: pIC50 of CCCCNC(=S)Nc1ccc2oc3c(OC)ccc(C(=O)Nc4c(Cl)cncc4Cl)c3c2c1 ?
**Result** 9.11

**Query** And for COc1ccc(C(=O)Nc2c(Cl)cncc2Cl)c2c1oc1ccc(NS(=O)(=O)N(C)C)cc12 ?
**Result** 8.99

**Query** And for COc1ccc(C(=O)Nc2c(Cl)cncc2Cl)c2c1oc1ccc(NC(=O)N3CCC(O)CC3)cc12 ?
**Result** 8.52

----------
Could you please report measured IC50 for the items listed next?
target: PDE4 enzyme; assay: Inhibition of Phosphodiesterase Enzymes (PDE4), [3H]cAMP hydrolysis assay; format: biochemical; details: PDE4 inhibition, 1 μM cAMP, 34° C., 20 minutes
Give just the numeric value; nM need not be written.

**Query** Quick check: IC50 of COc1ccc(C(=O)Nc2c(Cl)cncc2Cl)c2c3cc(NC(C)=O)ccc3n(C)c12 ?
**Result** 237

**Query** And for CCNC(=O)Nc1ccc2oc3c(OC)ccc(C(=O)Nc4c(Cl)cncc4Cl)c3c2c1 ?
**Result** 1.4

**Query** And for COc1ccc(C(=O)Nc2c(Cl)cncc2Cl)c2c1oc1ccc(NC(=O)OCC(C)C)cc12 ?
**Result** 63.6

**Query** And for COc1ccc(C(=O)Nc2c(Cl)cncc2Cl)c2c1oc1ccc(NS(C)(=O)=O)cc12 ?
**Result** 0.506

----------
target: PDE4 enzyme; assay: Inhibition of Phosphodiesterase Enzymes (PDE4), [3H]cAMP hydrolysis assay; type: biochemical; conditions: PDE4 inhibition, 1 μM cAMP, 34° C., 20 minutes
Could you please report measured IC50 for the items listed next?
Give just the numeric value; nM need not be written.

**Query** Quick check: IC50 of CCOC(=O)Nc1ccc2oc3c(OC)ccc(C(=O)Nc4c(Cl)cncc4Cl)c3c2c1 ?
**Result** 15.1

**Query** And for COc1ccc(C(=O)Nc2ccccc2)c2c1oc1ccc(NC(C)=O)cc12 ?
**Result** 156

**Query** And for COc1ccc(C(=O)Nc2cccnc2)c2c1oc1ccc(NC(C)=O)cc12 ?
**Result** 134

**Query** And for CCOC(=O)CNc1ccc2oc3c(OC)ccc(C(=O)Nc4c(Cl)cncc4Cl)c3c2c1 ?
**Result** 8.13

**Query** And for COc1ccc(NC(=O)c2ccc(OC)c3oc4ccc(NC(C)=O)cc4c23)cc1 ?
**Result** 959

**Query** And for COc1ccc(C(=O)Nc2ccncc2)c2c1oc1ccc(NC(C)=O)cc12 ?
**Result** 13.2

**Query** And for COc1ccc(C(=O)Nc2c(Cl)cncc2Cl)c2c1oc1ccc(NC(=O)NC(C)C)cc12 ?
**Result** 15.6

**Query** And for COc1ccc(C(=O)Nc2c(Cl)cncc2Cl)c2c1oc1ccc(NC(=O)c3ccco3)cc12 ?
**Result** 0.887

**Query** And for CN(C)S(=O)(=O)Nc1ccc2oc3c(OC(F)F)ccc(C(=O)Nc4c(Cl)cncc4Cl)c3c2c1 ?
**Result** 12.1

**Query** And for COc1ccc(C(=O)Nc2c(Cl)cncc2Cl)c2c1oc1ccc(NC(=O)N3CCN(C)CC3)cc12 ?
**Result** 1.28

**Query** And for COc1ccc(C(=O)Nc2c(Cl)cncc2Cl)c2c1oc1ccc(NC(C)=O)cc12 ?
**Result** 1.18

**Query** And for COc1ccc(C(=O)Nc2c(Cl)cncc2Cl)c2c1oc1ccc(NC(=O)N3CCOCC3)cc12 ?
**Result** 5.07

**Query** And for COc1ccc(C(=O)Nc2c(Cl)cncc2Cl)c2c1oc1ccc(NC(=O)C(F)(F)F)cc12 ?
**Result** 7.01

**Query** And for CCS(=O)(=O)Nc1ccc2oc3c(OC(F)F)ccc(C(=O)Nc4c(Cl)cncc4Cl)c3c2c1 ?
**Result** 14.1

**Query** And for CCOC(=O)CNC(=O)Nc1ccc2oc3c(OC)ccc(C(=O)Nc4c(Cl)cncc4Cl)c3c2c1 ?
**Result** 9.93

**Query** And for O=C(Nc1c(Cl)cncc1Cl)c1ccc(OC(F)F)c2oc3ccc(NC(=O)C4CC4)cc3c12 ?
**Result** 4.64

**Query** And for CNC(=O)Nc1ccc2oc3c(OC)ccc(C(=O)Nc4c(Cl)cncc4Cl)c3c2c1 ?
**Result** 2.14

----------
target: PDE4 enzyme; assay: Inhibition of Phosphodiesterase Enzymes (PDE4), [3H]cAMP hydrolysis assay; format: biochemical; settings: PDE4 inhibition, 1 μM cAMP, 34° C., 20 minutes; disodium salt
Counter-ions that a name gives are not always drawn.
MEASUREMENT TYPE: pIC50
Convention used: pIC50 is expressed as -log10 of the molar concentration.

**Query** Quick check: pIC50 of O=C(O)C(=O)Nc1ccc2oc3c(OC(F)F)ccc(C(=O)Nc4c(Cl)cncc4Cl)c3c2c1 [Example 39, disodium salt] ?
**Result** 9.22
